Tested on: SW-620
Assay: Cytotoxicity against human SW620 cells assessed as inhibition of tumor growth after 24 hrs
Assay type: functional, cell-based
Conditions: SW-620, 24 h
Measurement name: IC50 (nM)

smiles_string=N[C@@H](Cc1ccc(N(CCCl)CCCl)cc1)C(=O)O result_number=26900
smiles_string=Cc1ccc(/C=C2/CN(C(=O)CC(=O)N3C/C(=C\c4ccc(C)cc4)C(=O)/C(=C/c4ccc(C)cc4)C3)C/C(=C\c3ccc(C)cc3)C2=O)cc1 result_number=150
smiles_string=O=C1/C(=C/c2ccc(Cl)cc2)CN(C(=O)C(=O)N2C/C(=C\c3ccc(Cl)cc3)C(=O)/C(=C/c3ccc(Cl)cc3)C2)C/C1=C\c1ccc(Cl)cc1 result_number=180
smiles_string=O=C1/C(=C/c2ccc(F)cc2)CN(C(=O)C(=O)N2C/C(=C\c3ccc(F)cc3)C(=O)/C(=C/c3ccc(F)cc3)C2)C/C1=C\c1ccc(F)cc1 result_number=320
smiles_string=O=C1/C(=C\c2ccc(Cl)cc2)CN(C(=O)CC(=O)N2C/C(=C\c3ccc(Cl)cc3)C(=O)/C(=C/c3ccc(Cl)cc3)C2)C/C1=C\c1ccc(Cl)cc1 result_number=30
smiles_string=O=C1/C(=C\c2ccccc2)CN(CCCN2C/C(=C\c3ccccc3)C(=O)/C(=C/c3ccccc3)C2)C/C1=C\c1ccccc1 result_number=60
smiles_string=O=C1/C(=C\c2ccc(O)cc2)CN(C(=O)CC(=O)N2C/C(=C\c3ccc(O)cc3)C(=O)/C(=C/c3ccc(O)cc3)C2)C/C1=C\c1ccc(O)cc1 result_number=760

* * *

// pIC50 lookup, one value per entry
Tested on: CCRF-CEM
Assay: Antiproliferative activity against human CEM cells after 72 hrs by coulter counting analysis
Type: functional, cell-based
pIC50: −log10 of the molar value.
Measurement name: pIC50

compound=COc1ccc(/C=C2/CN(C(=O)CC(=O)N3C/C(=C\c4ccc(OC)cc4)C(=O)/C(=C/c4ccc(OC)cc4)C3)C/C(=C\c3ccc(OC)cc3)C2=O)cc1 result_number=3.43
compound=COc1ccc(/C=C2\CN(C(=O)C(=O)N3C/C(=C\c4ccc(OC)cc4)C(=O)/C(=C/c4ccc(OC)cc4)C3)C/C(=C\c3ccc(OC)cc3)C2=O)cc1 result_number=4.02
compound="N[C@@H](Cc1ccc(N(CCCl)CCCl)cc1)C(=O)O [MELPHALAN]" result_number=5.84
compound=O=C1/C(=C/c2ccccc2)CN(C(=O)C(=O)N2C/C(=C\c3ccccc3)C(=O)/C(=C/c3ccccc3)C2)C/C1=C\c1ccccc1 result_number=6.12

* * *

Parameter pIC50: see the listing below.
Test system: CCRF-CEM
Assay: Antiproliferative activity against human CEM cells after 72 hrs by coulter counting analysis
Type: functional, cell-based
pIC50: −log10 of the molar value.
Measurement name: pIC50

smiles_string=COc1ccc(/C=C2\CN(C(=O)C(=O)N3C/C(=C\c4ccc(OC)c(OC)c4)C(=O)/C(=C/c4ccc(OC)c(OC)c4)C3)C/C(=C\c3ccc(OC)c(OC)c3)C2=O)cc1OC result_number=5.36
smiles_string=O=C1/C(=C/c2ccc(F)cc2)CN(C(=O)C(=O)N2C/C(=C\c3ccc(F)cc3)C(=O)/C(=C/c3ccc(F)cc3)C2)C/C1=C\c1ccc(F)cc1 result_number=6.66
smiles_string=COc1cc(/C=C/C(=O)CC(=O)/C=C/c2ccc(O)c(OC)c2)ccc1O result_number=5.09
